- tested.target: Melanocortin receptor 5 (Homo sapiens, UniProt P33032)
- Sequence (P33032 whole entry): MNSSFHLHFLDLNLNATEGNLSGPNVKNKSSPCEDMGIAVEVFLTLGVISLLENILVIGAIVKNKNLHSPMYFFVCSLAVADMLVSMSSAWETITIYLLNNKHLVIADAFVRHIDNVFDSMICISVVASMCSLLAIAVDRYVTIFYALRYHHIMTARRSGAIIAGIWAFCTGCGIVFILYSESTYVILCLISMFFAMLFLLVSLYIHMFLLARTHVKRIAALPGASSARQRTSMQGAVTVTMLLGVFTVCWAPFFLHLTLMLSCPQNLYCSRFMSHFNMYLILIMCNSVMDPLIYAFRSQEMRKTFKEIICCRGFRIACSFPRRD
- test: Displacement of [125I]NDP-MSH from human recombinant MC5 receptor expressed in Sf9 cells
Hi! Just check whether Ki is below 10 µM. Below gives True, equal or above gives False.

>  <molecule>
NC1CCC(CC2CCC(N(C/C(Cl)=C/c3ccccc3)C(=O)c3cc4cc(OCc5ccccc5)ccc4[nH]3)CC2)CC1 (centres undefined)

>  <label.class>
False

$$$$
>  <molecule>
CCOc1cc(CN(C(=O)CCCc2c[nH]c3ccccc23)C2CCC(CC3CCC(N)CC3)CC2)ccc1OC (centres undefined)

>  <label.class>
True

$$$$
>  <molecule>
NCCCCCN(CCCc1ccccc1)C(=O)Cc1c[nH]c2ccccc12

>  <label.class>
True

$$$$
>  <molecule>
NC1CCC(CC2CCC(N(C/C(Cl)=C/c3ccccc3)C(=O)CCCc3c[nH]c4ccccc34)CC2)CC1 (stereo in doubt; form 2)

>  <label.class>
True

$$$$
>  <molecule>
NCCCN(Cc1ccc2ccccc2c1)C(=O)Cc1c[nH]c2ccccc12

>  <label.class>
False

$$$$
>  <molecule>
COc1ccccc1/C=C/CN(C(=O)CCCc1c[nH]c2ccccc12)C1CCC(CC2CCC(N)CC2)CC1 (stereo in doubt; form 1)

>  <label.class>
True

$$$$
>  <molecule>
COc1cc(Cl)c(CN(C(=O)CCCc2c(Cc3ccc(O)cc3)[nH]c3ccccc23)C2CCC(CC3CCC(N)CC3)CC2)cc1OC (centres undefined)

>  <label.class>
False

$$$$

----------
- tested.target: Melanocortin receptor 3 (Homo sapiens)
- Sequence (P41968 whole entry): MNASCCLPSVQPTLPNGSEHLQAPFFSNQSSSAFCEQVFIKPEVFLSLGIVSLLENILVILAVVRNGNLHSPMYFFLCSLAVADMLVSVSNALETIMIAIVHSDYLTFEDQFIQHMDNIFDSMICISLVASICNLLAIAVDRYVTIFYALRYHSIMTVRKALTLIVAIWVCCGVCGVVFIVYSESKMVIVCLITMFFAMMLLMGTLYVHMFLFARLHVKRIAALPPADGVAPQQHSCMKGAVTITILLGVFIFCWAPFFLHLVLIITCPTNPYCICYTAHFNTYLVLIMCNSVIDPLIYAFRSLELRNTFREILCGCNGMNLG
- test: Displacement of [125I]NDP-MSH from human recombinant MC3 receptor expressed in Sf9 cells
Hi! Just check whether Ki is below 30 µM. Below gives 1.0, equal or above gives 0.0.

>  <compound>
NCCCN(C(=O)/C=C/c1c[nH]c2ccccc12)C1CCc2ccccc2C1 (centres undefined)

>  <label.class>
0.0

$$$$
>  <compound>
NCCCN(C/C=C/c1ccccc1)C(=O)Cc1ccc2ccccc2c1

>  <label.class>
0.0

$$$$
>  <compound>
NC1CCC(CC2CCC(N(C(=O)CCCc3c[nH]c4ccccc34)C3CCc4ccccc4C3)CC2)CC1 (centres undefined)

>  <label.class>
0.0

$$$$
>  <compound>
NCCCCCN(C(=O)Cc1c[nH]c2ccccc12)C1CCCCCC1

>  <label.class>
1.0

$$$$
>  <compound>
CC(c1csc2ccccc12)N(CCCN)C(=O)CCCc1c[nH]c2ccccc12 (centres undefined)

>  <label.class>
0.0

$$$$
>  <compound>
COc1cc(Br)c(CN(C(=O)CCCc2c[nH]c3ccccc23)[C@H]2CC[C@@H](C[C@H]3CC[C@@H](N)CC3)CC2)cc1OC

>  <label.class>
1.0

$$$$
>  <compound>
NCc1ccc(CN(C/C=C/c2ccccc2)C(=O)CCCc2c[nH]c3ccccc23)cc1

>  <label.class>
0.0

$$$$
>  <compound>
N#Cc1ccc(CN(C(=O)CCCc2c[nH]c3ccccc23)C2CCC(CC3CCC(N)CC3)CC2)cc1 (stereo in doubt; form 1)

>  <label.class>
1.0

$$$$
>  <compound>
N[C@H]1CC[C@H](NC(=O)N[C@H]2CC[C@H](N(Cc3ccccc3)C(=O)CCCc3c[nH]c4ccccc34)CC2)CC1

>  <label.class>
0.0

$$$$
>  <compound>
NCCCCCN(C(=O)COc1ccc2ccccc2c1)C1CCC2(CC=CCC2)CC1 (centres undefined)

>  <label.class>
1.0

$$$$
>  <compound>
NC1CCC(CC2CCC(N(C/C(Cl)=C/c3ccccc3)C(=O)CCCc3c[nH]c4ccccc34)CC2)CC1 (stereo in doubt; form 4)

>  <label.class>
0.0

$$$$
>  <compound>
NC1CCC(CC2CCC(N(C/C(Cl)=C/c3ccccc3)C(=O)CCCc3c[nH]c4ccccc34)CC2)CC1 (stereo in doubt; form 1)

>  <label.class>
1.0

$$$$
>  <compound>
NCC1CCCC(CN(Cc2ccccc2)C(=O)CCCc2c[nH]c3ccccc23)C1 (centres undefined)

>  <label.class>
1.0

$$$$
>  <compound>
CC(c1ccc2ccccc2c1)N(CCN)C(=O)Cc1c[nH]c2ccccc12 (centres undefined)

>  <label.class>
1.0

$$$$
>  <compound>
COC(=O)c1ccc(CN(C(=O)CCCc2c[nH]c3ccccc23)C2CCC(CC3CCC(N)CC3)CC2)cc1 (centres undefined)

>  <label.class>
1.0

$$$$
>  <compound>
N[C@H]1CC[C@H](N(C/C(Cl)=C/c2ccccc2)C(=O)CCCc2c[nH]c3ccccc23)CC1

>  <label.class>
1.0

$$$$
>  <compound>
NCCN(C/C=C/c1ccccc1)C(=O)CCc1c[nH]c2ccccc12

>  <label.class>
0.0

$$$$
>  <compound>
NCCCN(C/C=C/c1ccccc1)C(=O)CCc1c[nH]c2ccccc12

>  <label.class>
0.0

$$$$
>  <compound>
NC1CCC(CC2CCC(N(C/C(Cl)=C/c3ccccc3)C(=O)COc3ccc4ccccc4c3)CC2)CC1 (stereo in doubt; 10b-36-14)

>  <label.class>
1.0

$$$$
>  <compound>
N=C(N)NCCCCN(Cc1ccc2ccccc2c1)C(=O)CCCc1c[nH]c2ccccc12

>  <label.class>
0.0

$$$$
>  <compound>
NC1CCCC(N(C/C(Cl)=C/c2ccccc2)C(=O)CCCc2c[nH]c3ccccc23)C1 (centres undefined)

>  <label.class>
1.0

$$$$
>  <compound>
CC1CC(CC2CCC(N(Cc3ccccc3)C(=O)CCCc3c[nH]c4ccccc34)C(C)C2)CCC1N (stereo in doubt; form 5)

>  <label.class>
0.0

$$$$
>  <compound>
NC1CCC(CC2CCC(N(Cc3ccccc3)C(=O)CCCc3c[nH]c4ccccc34)CC2)CC1 (stereo in doubt; 10d-40-8)

>  <label.class>
1.0

$$$$
>  <compound>
C=C(Br)CN(C(=O)CCCc1c[nH]c2ccccc12)C1CCC(CC2CCC(N)CC2)CC1 (stereo in doubt; form 1)

>  <label.class>
1.0

$$$$

----------
Measured Ki by item
- tested.target: Melanocyte-stimulating hormone receptor (Mus musculus, UniProt Q01727)
- Sequence (Q01727 whole entry): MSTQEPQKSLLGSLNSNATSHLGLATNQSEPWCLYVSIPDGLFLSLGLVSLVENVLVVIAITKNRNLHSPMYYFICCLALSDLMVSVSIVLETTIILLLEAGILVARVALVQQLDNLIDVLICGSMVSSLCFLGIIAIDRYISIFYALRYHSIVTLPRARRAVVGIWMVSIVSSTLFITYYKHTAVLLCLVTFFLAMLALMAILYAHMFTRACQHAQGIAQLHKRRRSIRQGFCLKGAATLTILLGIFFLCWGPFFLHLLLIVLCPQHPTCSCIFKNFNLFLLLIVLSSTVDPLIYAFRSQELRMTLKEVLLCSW
- test: Displacement of [125I]NDP-MSH from MC1 receptor in mouse B16 cells
- Assay type: cell-based

>  <compound>
NC1CCCC(NC(=O)N[C@H]2CC[C@H](N(Cc3ccccc3)C(=O)CCCc3c[nH]c4ccccc34)CC2)C1 (stereo not given in full)

>  <tested.target>
Melanocyte-stimulating hormone receptor (Mus musculus, UniProt Q01727)

>  <Ki>
1800 nM

$$$$
>  <compound>
CC(Cc1ccccc1)CN(CCCCCCN)C(=O)c1cc2cc(O)ccc2[nH]1 (stereo not given)

>  <tested.target>
Melanocyte-stimulating hormone receptor (Mus musculus, UniProt Q01727)

>  <Ki>
2900 nM

$$$$
>  <compound>
NCCCN(CCCc1ccccc1)C(=O)Cc1c[nH]c2ccccc12

>  <tested.target>
Melanocyte-stimulating hormone receptor (Mus musculus, UniProt Q01727)

>  <Ki>
5000 nM

$$$$
>  <compound>
C=C(Br)CN(C(=O)CCCc1c[nH]c2ccccc12)C1CCC(CC2CCC(N)CC2)CC1 (stereo in doubt; form 3)

>  <tested.target>
Melanocyte-stimulating hormone receptor (Mus musculus, UniProt Q01727)

>  <Ki>
1000 nM

$$$$
>  <compound>
N[C@H]1CC[C@H](N(C/C(Cl)=C/c2ccccc2)C(=O)CCCc2c[nH]c3ccccc23)CC1

>  <tested.target>
Melanocyte-stimulating hormone receptor (Mus musculus, UniProt Q01727)

>  <Ki>
2800 nM

$$$$

----------
Measured pKi by item
- tested.target: Melanocortin receptor 4 (Homo sapiens, UniProt P32245)
- Sequence (P32245 whole entry): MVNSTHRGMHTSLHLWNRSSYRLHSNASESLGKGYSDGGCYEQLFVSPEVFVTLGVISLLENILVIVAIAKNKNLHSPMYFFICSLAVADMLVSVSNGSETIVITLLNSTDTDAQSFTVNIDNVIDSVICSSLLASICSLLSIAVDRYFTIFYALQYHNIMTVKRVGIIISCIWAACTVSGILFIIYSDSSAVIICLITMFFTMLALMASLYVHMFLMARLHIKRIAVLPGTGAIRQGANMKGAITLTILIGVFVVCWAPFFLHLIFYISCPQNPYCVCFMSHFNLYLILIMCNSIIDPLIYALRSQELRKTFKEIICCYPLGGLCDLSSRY
- test: Displacement of [125I]NDP-MSH from human recombinant MC4 receptor expressed in Sf9 cells
pKi: −log10 of the molar value.

>  <molecule>
CSc1ccc(CN(C(=O)CCCc2c(Cc3ccc(O)cc3)[nH]c3ccccc23)C2CCC(CC3CCC(N)CC3)CC2)cc1 (configuration not stated)

>  <tested.target>
Melanocortin receptor 4 (Homo sapiens, UniProt P32245)

>  <pKi>
5.35

$$$$
>  <molecule>
COc1ccc2c(c1)c(CC(=O)N(CCCCN)C/C(C)=C/c1ccccc1)c(C)n2C(=O)c1ccc(Cl)cc1

>  <tested.target>
Melanocortin receptor 4 (Homo sapiens, UniProt P32245)

>  <pKi>
5.15

$$$$
>  <molecule>
NC(N)=NCCCCN(Cc1ccc2ccccc2c1)C(=O)CCc1c[nH]c2ccccc12

>  <tested.target>
Melanocortin receptor 4 (Homo sapiens, UniProt P32245)

>  <pKi>
3.94

$$$$
>  <molecule>
NCCN(Cc1ccc2ccccc2c1)C(=O)Cc1c[nH]c2ccccc12

>  <tested.target>
Melanocortin receptor 4 (Homo sapiens, UniProt P32245)

>  <pKi>
3.85

$$$$
>  <molecule>
NC1CCC(CC2CCC(N(C(=O)CCCc3c[nH]c4ccccc34)C3CCc4ccccc4C3)CC2)CC1 (configuration not stated)

>  <tested.target>
Melanocortin receptor 4 (Homo sapiens, UniProt P32245)

>  <pKi>
4.92

$$$$
>  <molecule>
Cc1ccccc1CN(C(=O)CCCc1c(Cc2ccc(O)cc2)[nH]c2ccccc12)C1CCC(CC2CCC(N)CC2)CC1 (configuration not stated)

>  <tested.target>
Melanocortin receptor 4 (Homo sapiens, UniProt P32245)

>  <pKi>
5.39

$$$$
>  <molecule>
NCCCCCN(CCCc1ccccc1)C(=O)Cc1c[nH]c2ccccc12

>  <tested.target>
Melanocortin receptor 4 (Homo sapiens, UniProt P32245)

>  <pKi>
4.11

$$$$

This collection of values is drawn from ChEMBL document CHEMBL1149662.
